Biological target: CYP3A4 (Homo sapiens)
Construct: purchased Invitrogen
Test: CYP450 screening, fluorescent signal, recombinant baculosomes, CYP3A4
Assay type: in vitro ADME
Details: Blue Substrate; read-out: CYP3A4 (Blue Substrate) IC50
pIC50: −log10 of the molar value.
property name: pIC50

> print(dat)
                           structure.smiles  observed.measurement
1  CC[C@H]1[C@@H](O)[C@@H]2[C@H]([C@@H](O)C[C@]3(C)[C@@H]([C@H](C)CCC(=O)O)CC[C@@H]23)[C@@]2(C)CCCC[C@@H]12                < 5.00

* * *

Target: dFXR (Canis lupus familiaris, UniProt A0A8I3N2S7)
Construct: printed for the human protein only; fused on or other part: GST tag, printed only for the human construct
Assay: FXR cross species activity, dFXR
Settings: Table 2, cross species
pEC50: −log10 of the molar value.
property name: pEC50

> print(dat)
                           structure.smiles                       experimental.system  property.name  observed.measurement
1  CC[C@H]1[C@@H](O)[C@@H]2[C@H]([C@@H](O)C[C@]3(C)[C@@H]([C@H](C)CCC(=O)O)CC[C@@H]23)[C@@]2(C)CCCC[C@@H]12  dFXR (Canis lupus familiaris, UniProt A0A8I3N2S7)          pEC50                  5.78

* * *

Target: rFXR (Rattus norvegicus)
Assay: FXR cross species activity, rFXR
Details: Table 2, cross species
property name: EC50 (nM)

> print(dat)
                                   compound       experimental.system  uom  observed.measurement
1  CC[C@H]1[C@@H](O)[C@@H]2[C@H]([C@@H](O)C[C@]3(C)[C@@H]([C@H](C)CCC(=O)O)CC[C@@H]23)[C@@]2(C)CCCC[C@@H]12 [Compound 1]  rFXR (Rattus norvegicus)   nM                   490

* * *

Biological target: CYP2C19 (Homo sapiens, UniProt P33261)
Assay: CYP450 screening, fluorescent signal, recombinant baculosomes, CYP2C19
pIC50: −log10 of the molar value.
property name: pIC50

> print(dat)
                           structure.smiles  observed.measurement
1  CC[C@H]1[C@@H](O)[C@@H]2[C@H]([C@@H](O)C[C@]3(C)[C@@H]([C@H](C)CCC(=O)O)CC[C@@H]23)[C@@]2(C)CCCC[C@@H]12                < 5.00

* * *

Molecular target: Human FXR (Homo sapiens, UniProt Q96RI1)
Construct: Human FXR-LBD-GST was incubated
Experiment: AlphaScreen assay, FXR-LBD-GST / SRC-1 LXXLL peptide recruitment
Conditions: Table 1; Human FXR-LBD-GST with biotinylated LXXLL SRC-1 peptide; quantity not named in head (EC50 per Table 2)
pEC50: −log10 of the molar value.
property name: pEC50

> print(dat)
                           structure.smiles                       experimental.system  observed.measurement
1  CC[C@H]1[C@@H](O)[C@@H]2[C@H]([C@@H](O)C[C@]3(C)[C@@H]([C@H](C)CCC(=O)O)CC[C@@H]23)[C@@]2(C)CCCC[C@@H]12  Human FXR (Homo sapiens, UniProt Q96RI1)                  6.85

* * *

Target: CYP3A4 (Homo sapiens, UniProt P08684)
Construct: purchased Invitrogen
Assay: CYP450 screening, fluorescent signal, recombinant baculosomes, CYP3A4
Type: in vitro ADME
Conditions: Green Substrate; read-out: CYP3A4 (Green Substrate) IC50
pIC50: −log10 of the molar value.
property name: pIC50

> print(dat)
                                   molecule  observed.measurement
1  CC[C@H]1[C@@H](O)[C@@H]2[C@H]([C@@H](O)C[C@]3(C)[C@@H]([C@H](C)CCC(=O)O)CC[C@@H]23)[C@@]2(C)CCCC[C@@H]12 [Compound 1]                < 5.00

* * *

Target: Human TGR5 (Homo sapiens, UniProt Q8TDU6)
Construct: Human enteroendocrine NCI-H716 cells constitutively expressing TGR5; endogenous in cells; host or cells: NCI-H716
Sequence (Q8TDU6 1-330): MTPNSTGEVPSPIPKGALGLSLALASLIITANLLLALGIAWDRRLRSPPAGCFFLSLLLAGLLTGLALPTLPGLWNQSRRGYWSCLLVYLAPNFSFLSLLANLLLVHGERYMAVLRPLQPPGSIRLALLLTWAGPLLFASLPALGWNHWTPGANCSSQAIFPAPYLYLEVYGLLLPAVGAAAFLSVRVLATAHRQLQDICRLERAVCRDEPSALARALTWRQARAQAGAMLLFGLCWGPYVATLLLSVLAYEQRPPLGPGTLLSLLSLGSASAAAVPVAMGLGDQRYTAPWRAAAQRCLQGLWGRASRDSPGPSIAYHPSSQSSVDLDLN
Assay: HTR-FRET intracellular cAMP assay in NCI-H716 cells
Format: cell-based
Conditions: Table 1; intracellular cAMP, NCI-H716 cells; quantity not named in head (EC50 per Table 3); read-out: HTR-FRET (cAMP) Human TGR5 (NCI-H716 cells)
pEC50: −log10 of the molar value.
property name: pEC50

> print(dat)
                           structure.smiles  observed.measurement
1  CC[C@H]1[C@@H](O)[C@@H]2[C@H]([C@@H](O)C[C@]3(C)[C@@H]([C@H](C)CCC(=O)O)CC[C@@H]23)[C@@]2(C)CCCC[C@@H]12                < 3.70

* * *

Target: CYP2D6 (Homo sapiens)
Test: CYP450 screening, fluorescent signal, recombinant baculosomes, CYP2D6
property name: IC50

> print(dat)
                           structure.smiles  observed.measurement
1  CC[C@H]1[C@@H](O)[C@@H]2[C@H]([C@@H](O)C[C@]3(C)[C@@H]([C@H](C)CCC(=O)O)CC[C@@H]23)[C@@]2(C)CCCC[C@@H]12               > 10 µM

* * *

Assay: 1-octanol-water partition coefficient (LogPA-)
Assay type: physicochemical
Conditions: bile acids as ionized species
Response key: TRUE means LogPA- (1-octanol-water partition coefficient) >= 2; FALSE means LogPA- (1-octanol-water partition coefficient) < 2.

> print(dat)
                                   compound  discrete.label
1  CC[C@H]1[C@@H](O)C2C3CC[C@H]([C@H](C)C[C@H](C)C(=O)O)[C@@]3(C)CCC2[C@@]2(C)CC[C@@H](O)C[C@@H]12 (stereo partly shown)            TRUE
2  CC[C@H]1[C@@H](O)C2C3CC[C@H]([C@H](C)CCC(=O)O)[C@@]3(C)C[C@H](O)C2[C@@]2(C)CC[C@@H](O)C[C@@H]12 (stereo partly shown)           FALSE
3  CC[C@H]1[C@@H](O)[C@@H]2[C@H](C[C@H](O)[C@]3(C)[C@@H]([C@H](C)C[C@H](C)C(=O)O)CC[C@@H]23)[C@@]2(C)CC[C@@H](O)C[C@@H]12           FALSE
4  CC[C@H]1[C@@H](O)[C@@H]2[C@H](CC[C@]3(C)[C@@H]([C@H](C)CCC(=O)O)CC[C@@H]23)[C@@]2(C)CC[C@@H](O)C[C@@H]12            TRUE
5  CC[C@H]1[C@@H](O)[C@@H]2[C@H]([C@@H](O)C[C@]3(C)[C@@H]([C@H](C)CCC(=O)O)CC[C@@H]23)[C@@]2(C)CCCC[C@@H]12           FALSE
6  CC[C@H]1[C@@H](O)C2C3C[C@H](O)[C@H]([C@H](C)CCC(=O)O)[C@@]3(C)CCC2[C@@]2(C)CC[C@@H](O)C[C@@H]12 (stereo partly shown)           FALSE

* * *

Assay: Critical micellar concentration
Assay type: physicochemical
Conditions: in […] NaCl water solution
Reported CMC (Critical Micellar Concentration) values for the following compounds.
property name: CMC (Critical Micellar Concentration)

> print(dat)
                                   compound  observed.measurement
1  CC[C@H]1[C@@H](O)[C@@H]2[C@H](CC[C@]3(C)[C@@H]([C@H](C)CCC(=O)O)CC[C@@H]23)[C@@]2(C)CC[C@@H](O)C[C@@H]12                2.9 mM
2  CC[C@H]1[C@@H](O)[C@@H]2[C@H]([C@@H](O)C[C@]3(C)[C@@H]([C@H](C)CCC(=O)O)CC[C@@H]23)[C@@]2(C)CCCC[C@@H]12                2.0 mM
3  CC[C@H]1[C@@H](O)C2C3C[C@H](O)[C@H]([C@H](C)CCC(=O)O)[C@@]3(C)CCC2[C@@]2(C)CC[C@@H](O)C[C@@H]12 (stereo partly shown)                5.9 mM
4  CC[C@H]1[C@@H](O)[C@@H]2[C@H](C[C@H](O)[C@]3(C)[C@@H]([C@H](C)C[C@H](C)C(=O)O)CC[C@@H]23)[C@@]2(C)CC[C@@H](O)C[C@@H]12                  2 mM
